STUDY_TARGET: Neuronal acetylcholine receptor subunit alpha-7 (Rattus norvegicus, UniProt Q05941)
Sequence (Q05941 whole entry): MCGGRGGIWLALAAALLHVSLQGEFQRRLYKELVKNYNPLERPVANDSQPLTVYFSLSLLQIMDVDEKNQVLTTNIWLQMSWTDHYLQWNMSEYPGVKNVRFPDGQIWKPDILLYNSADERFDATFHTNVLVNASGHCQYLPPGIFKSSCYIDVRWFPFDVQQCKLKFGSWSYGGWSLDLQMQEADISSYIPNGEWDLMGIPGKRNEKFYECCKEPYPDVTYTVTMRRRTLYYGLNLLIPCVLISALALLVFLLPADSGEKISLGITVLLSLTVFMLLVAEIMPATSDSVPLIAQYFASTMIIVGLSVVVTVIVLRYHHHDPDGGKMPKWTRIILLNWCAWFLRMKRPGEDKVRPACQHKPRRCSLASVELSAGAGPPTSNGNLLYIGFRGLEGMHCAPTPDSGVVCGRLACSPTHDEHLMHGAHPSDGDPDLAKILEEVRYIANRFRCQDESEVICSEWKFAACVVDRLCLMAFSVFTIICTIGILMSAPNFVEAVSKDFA
TEST_NAME: Binding affinity towards Nicotinic acetylcholine receptor alpha-7 using [3H]-MLA as radioligand
Could you please mark y for values of Ki below 3 µM and n for values at or above it?

Enquiry: Hello, is Ki of the following molecule strictly smaller than 3 µM? C1=C(c2cccnc2)C2CCC(CC1)N2 (stereo unspecified)
Return: y

Enquiry: Hello, is Ki of the following molecule strictly smaller than 3 µM? C1=C(c2ccc(-c3ccccc3)nc2)C2CCC(CC1)N2 (stereo unspecified)
Return: y

Enquiry: Hello, is Ki of the following molecule strictly smaller than 3 µM? C1=C(c2cnccc2-c2ccccc2)C2CCC(CC1)N2 (stereo unspecified)
Return: y

Enquiry: Hello, is Ki of the following molecule strictly smaller than 3 µM? C1=C(c2cccnc2-c2ccccc2)C2CCC(CC1)N2 (stereo unspecified)
Return: n

Enquiry: Hello, is Ki of the following molecule strictly smaller than 3 µM? `Clc1ccc(C2=CCC[C@@H]3CC[C@H]2N3)cn1`
Return: y

Enquiry: Hello, is Ki of the following molecule strictly smaller than 3 µM? C1=C(c2cncc(-c3ccccc3)c2)C2CCC(CC1)N2 (stereo unspecified)
Return: n
